Origin of values: PubChem BioAssay (NCI)

System: OVCAR-4 ovarian
Protocol text: NCI tumour cell line growth inhibition, 48 h
Endpoint name: TGI (µM)
Quick reminder: number only, in µM, skip the unit.

Record `COc1cc(Nc2ccnc(NCCNc3ccnc4cc(Cl)ccc34)n2)cc(OC)c1` , field TGI: 6.56

Sample CCCCC(CCCCCC(CCCC)C1NC(C)Cc2cc(OC)c(OC)cc21)C1NC(C)Cc2cc(OC)c(OC)cc21 (stereo not given) ; TGI observed: 2.76

---

System: SR leukemia
Protocol text: NCI tumour cell line growth inhibition, 48 h
Where a SMILES comes first, the peptide text is derived from it. Bridges are numbered along the chain shown (N, C = ends). [ ]: non-standard residue; d: D form. The star is where a group is joined. ξ: configuration not given here. X26 = O=C(/C=C/C=C/C=C/C=C/C=C/C(=O)*)NC1=C(O)CCC1=O; Pro(4R-Me) = C[C@H]1CN[C@H](C(=O)O)C1; NMeA = CN[C@@H](C)C(=O)O; ξF = NC(Cc1ccccc1)C(=O)O; ξA = CC(N)C(=O)O
Would you mind telling me the reported TGI of each entry?

Note to self: TGI of CC1NC(=O)[C@H](C)N(C)C(=O)[C@@H]2CCCN2C(=O)[C@@H](NC(=O)C(Cc2ccccc2)NC(=O)/C=C/C=C/C=C/C=C/C=C/C(=O)NC2=C(O)CCC2=O)COC(=O)[C@@H]2C[C@@H](C)CN2C1=O (stereo partly drawn) (X26-[ξF]SP[NMeA][ξA][Pro(4R-Me)]; ester 2-C) with SR leukemia was > 100 µM

Tested on SR leukemia, the item `O=C(/C=C/c1ccc2ccccc2c1)NCc1ccc(C(=O)NCc2ccccc2)cc1` showed TGI equal to > 100 µM

Result for `CSc1nc(-c2cc3ccccc3o2)cc(-c2ccc(Cl)cc2)c1C#N` , tested on SR leukemia, TGI: > 100 µM

Hey, SR leukemia data for `Cc1nnc2n1-c1ccccc1-c1[nH]c3ccccc3c1C2` : TGI came out at > 100 µM

Reading of TGI for `CCOC(=O)C(COS(C)(=O)=O)(COS(C)(=O)=O)C(=O)OCC` with SR leukemia: > 100 µM

Test item CC(C)(C)COC1C2(OCCO2)C2CCC1(C)C2(C)C (stereo unspecified) ; SR leukemia; reported TGI was 40.6 µM

Recorded TGI for `c1csc(-c2cc(-c3ccsc3)c(-c3ccsc3)s2)c1` on SR leukemia was > 100 µM

The reported TGI value, SR leukemia, for CC1=C(C(=O)Nc2ccc(F)c(Cl)c2)C(c2cccc(Cl)c2)NC(=S)N1 (stereo unspecified) reads 47.8 µM

Let me check: O=C1C[C@@H](Sc2ccccc2)C2(OCCO2)C2ON3CCCC[C@H]3[C@H]12 (stereo partly specified) , system SR leukemia, measured TGI is 4.35 µM

Recorded TGI for C=C(Cl)C(Cl)(CBr)CCCC(C)(C)Cl (stereo unspecified) on SR leukemia was > 100 µM

Entry O=S1c2ccccc2N=C(c2cccc3ccccc23)CC1c1cccc2ccccc12 (stereo unspecified) , tested on SR leukemia, has a reported TGI of 49.2 µM

TGI of `CC(=O)NNc1nc(C)c(C(=O)/C=C/C=C/c2ccccc2)s1` , assay on SR leukemia, is > 100 µM

Entry `Clc1cc(OC23CC4CC(CC(C4)C2)C3)nc(Cl)n1` , tested on SR leukemia, has a reported TGI of 48.4 µM

Reading of TGI for `COc1cc(-c2nccn2-c2ccc3ccccc3c2)cc(OC)c1OC` with SR leukemia: 7.06 µM

Hey, SR leukemia data for `O=c1cc(-c2ccccc2)nc(-n2[nH]c3c(c2=O)CCCC3)[nH]1` : TGI came out at > 100 µM

Reported TGI (SR leukemia) for entry `O=C(Nc1ccc(Cl)cc1)c1cc2c(cc1Cl)SC(NNCCO)=NS2(=O)=O` is > 100 µM

Record for CC(=O)OC1CN2CCC1CC2 (stereo unspecified) under target or system SR leukemia: TGI reported as > 100 µM

Form field TGI for item c1cc[n+](C2c3ccccc3C([n+]3ccccc3)c3ccccc32)cc1 (stereo unspecified) on SR leukemia: > 100 µM

Item NC(CCC(=O)Nc1ccc(O)cc1)C(=O)O (stereo unspecified) was tested on SR leukemia; the reported TGI is > 100 µM

Item `C[C@H](C(=O)C12CC3CC(CC(C3)C1)C2)[C@H](O)c1ccccc1` was tested on SR leukemia; the reported TGI is 78.4 µM

Given the compound `Cc1cc(OCC(=O)O)c(Cl)cc1Cl` and test system SR leukemia, the measured TGI is > 100 µM
